- Tested on: RXRa DBDmut IVT, anti-RXR (DBD mutation: RXRa K156A/R161A, NR concentration 90 nM)
- experiment-notes: PBM binding z-score (relative to random genomic background probes); higher = stronger binding; sequences stand for … in GC…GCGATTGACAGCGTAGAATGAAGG
Returns the class for an entry based on its PBM binding z-score. Class ranges: lower band = under 0.2, central band = from 0.2 up to 2, upper band = 2 and over

Band for "CCCGAAAGGTCGTGCTCAGGTGAGTATACCAAAC" ?
upper band

Which bin, given its PBM binding z-score, does "CCTACTGGGCCAAGGTCGTTGATCAGTCAAAGCA" occupy?
lower band

Which category fits this record: "ATCGAAAGGTCGTGAGCTGAGTATACAGAAAGGC"
central band

Into which category would you place "CGAACTAGGTCATTGATAGGACAGTGAATAGTAA" ?
upper band

Into which category would you place "CGTCCAAGGTCAAGGTTAGTGAAAGAGACTCGAA" ?
upper band

Exam item: assign "AGAATGAGATTATACGTAGATCAGGGAAGAAAGT" to the correct category.
lower band

Into which bin does this sequence go? "AGAACGAGGGCACGCTGAGTTGATAGCTGAGTAG"
upper band

Dear colleague, I would appreciate it if you could identify the bin for "TATACAGGGACAAAGGCCAGAGTACGAATGTCGA" and reply at your convenience.
lower band

Could you place "GCTTACGGGTCAAAGGTTATATCATGAATAGAAT" in its proper category? Many thanks.
upper band

Kindly identify the class of "CGTCAAAGTTCAACTAAAGTAACGTAAAGCACGC" .
upper band

Could you tell me which band "CGAACTAGGTCATTGTCAGGACAGTGAATAGTAA" belongs to?
upper band

Consider "ATCGAAAGGTCCTGAGGTGAGTATACAGAAAGGC" . To which PBM binding z-score class does it belong?
lower band

Form field 'band' for "TCTCGGAGGACATGAAAGGTCAGAGCTCGACATC"
central band

For this sequence, which bin applies? "TCATATAGGTAATACAGGTGAAAATCGGCATCTA"
central band

Which class is correct for the following sequence? "TCTCGGAGGACACGAAGGTCAGGGCTTTCCAGAG"
central band

Category of "AATACAGGGTCACTAGGCCAGACTAGGTACGAAT" :
upper band

Pick a category. Item: "TCTTGTAGATCACGCAGGTTAAGAAAGCCTGAGT"
central band

Lab note: sort "TCTTGTCGATCAACAGGAGGTTAAGAAAGATCGA" into the matching PBM binding z-score band.
lower band

Please classify: "CGAACTAGGTCAAGGACAGAGAATCTCCGCACGC"
central band

Class? Entry: "ACAGACACGTGAGTGAAGGTAACTCAGCTGGACG"
lower band

Bin? "TTACCAAGGTGAAGGTCGCTGATCCCTCTGTAGA"
lower band

Band for "TCTTGTAGCTCAATAGAGGTTAAGAAAGTGCGCT" ?
central band

Textbook exercise: identify the category of the sequence given here, "CGTCCAAGGTCATAGGAGGTCAGTAAAGACAGAT" , according to its measured value.
upper band

Classify this sequence: "AGAATGAGGTTATTAGGATCAGGGAATTGCGGTC"
upper band

Entry "GCTAGCAGGCCACTTGGGTCACTCAATGACGGGC" belongs to which category?
lower band

Entry "GGAACGAGGGCATTCGAGTTAATAGCATGGCGAT" belongs to which category?
upper band

Bin this entry: "TCATATATGTAATACAGGTGAAAGTCGGCATCTA"
central band

Form field 'band' for "CGTCCAAGGTCAGAGACGTCAGTGAATGCCGAGT"
upper band

Would you mind sorting "CGAACCAGGGCATGAGTTGATAGCAAATGCCGAT" into the appropriate category?
central band

Please let me know in which category the item "TAGCCCAGGTCATGCGGGCCAGTATAGTGTCGGC" belongs.
central band

Form: Item = "CGTCAAAGTTCAAGTAAGGTAACGTAAAGCACGC" ; Class = ?
upper band

Hi there! Could you help me figure out the category for "GGAAAGAGGGCAAAGTTGATAGCATCTGTCGACG" please?
central band

Which class does "GCTAGTTGGTCAGTAAAAGGTCTCACACCGGTCG" fall in?
lower band

Where would "AGAATGAGGTAACCAAAGATCAGGGAAACGCTTG" land among the classes by reported PBM binding z-score?
lower band

Class for "TCTTGTAGATCAAGCAGGTTAACAAAGCCTGAGT" ?
central band

Sort into band: "TCTGGTAGATCAGCAGGTTAAGAAAGCTGGCCAA"
lower band

Sort "CCTAGCAGGCCAGGCTCACTCAAGCATTTCGCTT" into one of the categories.
lower band

// return the class label for "TCATATAGGTAACAGGTGAAAGTCGGTGTGGTAA"
central band

Form: Item = "CCAGACAGGTGAGAGGGTAACTCAGCCTCGATTA" ; Class = ?
lower band

Category of "TCTGCTAGGTCAGTTGGTGAGCTAACGAGCTGCC" :
central band

Please indicate the class for "CCTTCTGGGCCATCAGGTCATTGATATCAACGTT" based on its PBM binding z-score.
central band

Form field 'band' for "CCGAGTAGGTTATGGGGCATTCATGCAACGGTGA"
lower band

State the band of "AATACACGGTCACTAGGCCAGAGTAGGTACGAAT"
lower band

Class label required: "TCTTGTAGTTCAGCAGGTTAAGAAAGCTGGCCAA"
central band

Input "CGAACTAGGTCATTTACAGGACAGTGAATAGTAA" ; output its category
upper band

Field: class (PBM binding z-score) — entry: "TGACTGAGGTTATAAGATCAGGGAACGTTGCAAA"
central band

Each sequence maps to one class by PBM binding z-score. Which class for "CGAACTAGGTCAGAACCGGACAGTGAAGGATGAT" ?
central band

Record "TAGCCTAGGTGATGGGCCAGTATACCACGCGAAC" — which class?
lower band

* * *

- Test system: PPARg:RXRa DBDmut IVT, anti-RXR (DBD mutation: RXRa K156A/R161A, NR concentration 270 nM, RXRa partner concentration 90 nM)
- experiment-notes: PBM binding z-score (relative to random genomic background probes); higher = stronger binding; sequences stand for … in GC…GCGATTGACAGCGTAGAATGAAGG
For each of the sequences below, state its PBM binding z-score.

Identify PBM binding z-score associated with the sequence "CCTATTAGTTGACCGTAAGGGCAACCGAAGCTCG"
0.0924

Return PBM binding z-score (reported value) for this sequence: "CAGCCTAGGTCAGGGCCAGTAAAGGAGGAACGTT"
1.26

Tell me its PBM binding z-score given "ATATGTAGGGTACATCCGGGTCATTCAGGCTATG" as the entry.
5.82

Quick one: give measured PBM binding z-score for "GTACCAAGGTTAATAGGTCGTTGATGAGTAGGCG"
1.85

Give the value of PBM binding z-score reported for the following: "GCGTCTGGGGCAAAGCAGGTTACCATAAGGTTGG"
3.3

Give recorded PBM binding z-score. "ACTAGCTGGTCAGCTGAGGTCACACACAATTCGG"
0.832

Respond only with PBM binding z-score recorded for "CAAACTAAGTCACAGAGGTCAAAGTCCGTGCGTA"
2.87

Supply PBM binding z-score value. Item: "AGAACGAGGGCAAGGAGTTGATAGCACGGGTGGC"
2.54

State its PBM binding z-score for this sequence: "CGTCAAAGTTCAACTAACGTAACGTAAAGCACGC"
0.504

Given the sequence "GGAACGAGGGCAAGTTGAAAGCAGAGTTTGATGG" , write its reported PBM binding z-score.
3.88

Please list PBM binding z-score recorded for the sequence "CCTGCTAGGTCAATGGTCAACTAAAGCAGCTCGC"
3.98

Supply reported PBM binding z-score belonging to this sequence: "AGAATGAGGTTACCCAAGATCAGGGAAACGCTTG"
3.03

* * *

- Tested on: RARg homodimer (NR concentration 270 nM)
- experiment-notes: PBM binding z-score (relative to random genomic background probes); higher = stronger binding; sequences stand for … in GC…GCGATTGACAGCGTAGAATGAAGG
For each record, write down the corresponding PBM binding z-score.
Write the value as a bare number.

Return value of PBM binding z-score for input "TAGCCTAGGTCAGATCGGGCCATTATACGCTATA" , no commentary.
3.68

Quote PBM binding z-score reported for "AGTCAAAGTTCATGTAGGTAACGTAAGATATGCT" please.
5.84

Supply reported PBM binding z-score belonging to this sequence: "TAGCCTAGGTCATGGGCCAGTATTCCACGCGAAC"
4.6

Answer with the recorded PBM binding z-score for the sequence listed here: "ATATGTAGGTTACATCCGGGTCATTAAGGCTATG"
2.19

Complete the entry with PBM binding z-score for "GCGACTGGGTCATCAGCAGGTTACCATAACTTAA"
3.53

Output measured PBM binding z-score for this item: "CCTAGCAGGCCAATCTGGGACACTCAAGGCTTGA"
0.0826

Given the sequence "GCTTGTGGATCAAGGTTAAGAAAGACTAAGCTAA" , write its reported PBM binding z-score.
0.12

Input "TAGCCTAGGTCATTGGGCCGGTATAGTACGCATC" , output reported PBM binding z-score.
4.08

For "AGTCAAAGTCCACTAGGTAACGTAAGATTCAGCT" , write its PBM binding z-score.
0.85

Hello, please tell me recorded PBM binding z-score for this one: "TATACAGGGTCAAAGGCCAGATTACGAATGTCGA"
4.99

Please supply the value of reported PBM binding z-score for the item "GCTAGTTGGTCCGTAAAAGGTCACACACCGGTCG"
4.7

Determine from records and report PBM binding z-score for "TCATATAGGTAAATACTAGGTGAAAGTCCGATCT"
0.709
